- test target: Human complement C1s enzyme (Homo sapiens, UniProt P09871)
- Construct: purified from human serum, Complement Technology, Inc; purchased Complement Technology, Inc; host or cells: human serum
- assay: Human C1s Enzyme Assay
- Assay type: biochemical
- experimental setup: human C1s 1.16 nM, 5 min preincubation, substrate Z-L-Lys-SBzl 100 μM, A405; read-out: C1s Protease Activity
Quick reference: IC50 of the listed items.

The following compounds have reported results that may help.
- compound: "CC(=O)O/N=C(\\N)c1csc(CNC(=O)[C@@H]2C[C@]3(C)C[C@@H]3N2C(=O)CN(C[C@H](O)[C@H](O)[C@@H](O)[C@H](C)O)C(=O)OC(C)(C)C)c1"
  reported value: "> 1000 nM"
- compound: "C[C@@H](NC(=O)[C@@H]1C[C@@]2(CN1C(=O)CNC(=O)CCCOc1ccccc1)CC2(F)F)c1cc(C(=N)N)cs1"
  reported value: "100 to 1000 nM"
- compound: "CO[C@@H]1C[C@@H](C(=O)N[C@H](C)c2cc(C(=N)N)cs2)N(C(=O)CNC(=O)CCCOc2ccccc2)C1"
  reported value: "< 100 nM"

What measured IC50 goes with "CC1(c2ccc(OCCCC(=O)NCC(=O)N3[C@H]4C[C@@]4(C)C[C@H]3C(=O)NCc3cc(C(=N)N)cs3)cc2)COC1" ? < 100 nM

Requested read-out: IC50. Entry: C[C@H](NC(=O)[C@@H]1C[C@]2(C)C[C@@H]2N1C(=O)CNC(=O)c1ccc(Oc2ccccc2)cc1)c1cc(C(=N)N)cs1 (single isomer, unassigned) < 100 nM

Recorded IC50 for "Cc1ccc(OCCCC(=O)NCC(=O)N2CC3(C[C@H]2C(=O)NCc2cc(C(=N)N)cs2)OCCO3)cc1" , please? < 100 nM

Request the reported IC50 associated with "C[C@@H](NC(=O)[C@@H]1C[C@]2(C)C[C@@H]2N1C(=O)CNC(=O)CCCCc1ccccc1)c1cc(C(=N)N)cs1" < 100 nM

Could you tell me which IC50 is on file for "CO[C@@H]1C[C@@H](C(=O)NCc2cc(C(=N)N)cs2)N(C(=O)CNC(=O)CCCOc2ccccc2)C1" ? < 100 nM

---

- test target: Human complement C1s enzyme (Homo sapiens)
- Construct: purified from human serum, Complement Technology, Inc; purchased Complement Technology, Inc; host or cells: human serum
- Sequence (P09871 438-688 limits assumed): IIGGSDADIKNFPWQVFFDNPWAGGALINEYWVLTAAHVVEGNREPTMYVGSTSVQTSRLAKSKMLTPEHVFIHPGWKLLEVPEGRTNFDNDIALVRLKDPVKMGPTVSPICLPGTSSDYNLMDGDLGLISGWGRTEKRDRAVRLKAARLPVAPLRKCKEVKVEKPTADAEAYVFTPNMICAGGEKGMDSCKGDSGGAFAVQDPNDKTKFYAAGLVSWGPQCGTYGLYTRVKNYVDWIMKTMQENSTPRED
- Sequence (P09871 16-437 partner limits assumed): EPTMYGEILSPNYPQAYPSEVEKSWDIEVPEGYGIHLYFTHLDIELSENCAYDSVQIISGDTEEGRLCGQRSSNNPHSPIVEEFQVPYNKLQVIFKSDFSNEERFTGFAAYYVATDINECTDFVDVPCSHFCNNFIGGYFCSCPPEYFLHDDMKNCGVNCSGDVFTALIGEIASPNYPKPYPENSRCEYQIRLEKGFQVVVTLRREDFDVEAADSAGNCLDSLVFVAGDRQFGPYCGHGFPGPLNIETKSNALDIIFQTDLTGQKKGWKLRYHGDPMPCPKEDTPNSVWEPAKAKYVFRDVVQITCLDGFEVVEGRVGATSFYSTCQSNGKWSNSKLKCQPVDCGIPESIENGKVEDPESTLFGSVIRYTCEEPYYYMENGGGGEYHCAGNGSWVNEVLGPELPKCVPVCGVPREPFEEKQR
- assay: Human C1s Enzyme Assay
- Assay type: biochemical
- experimental setup: human C1s 1.16 nM, 5 min preincubation, substrate Z-L-Lys-SBzl 100 μM, A405; read-out: C1s Protease Activity
measurement kind: IC50

Which IC50 value is on record for "C[C@@]12C[C@@H]1N(C(=O)CNC(=O)c1ccc(Oc3ccccc3)cc1)[C@H](C(=O)NCc1cc(-c3ncc[nH]3)cs1)C2" ? < 100 nM

Which IC50 is listed for "C[C@@H](NC(=O)[C@@H]1C[C@@H](c2ccccc2)CN1C(=O)CNC(=O)CCCOc1ccccc1)c1cc(C(=N)N)cs1" ? < 100 nM

What value of measured IC50 is listed for "C[C@@]12C[C@@H]1N(C(=O)CNC(=O)c1ccc(Oc3cccnc3)cn1)[C@H](C(=O)NCc1cc(C(=N)N)cs1)C2" ? < 100 nM

Requested read-out: IC50. Entry: "N=C(N)c1csc(CNC(=O)[C@@H]2C[C@@H](OC(F)F)CN2C(=O)CNC(=O)CCCOc2ccccc2)c1" < 100 nM

Request the reported IC50 associated with C[C@@H](NC(=O)[C@@H]1C[C@]2(C)C[C@@H]2N1C(=O)CNC(=O)c1ccc(Oc2ccccc2)cc1)c1cc(C(=N)N)cs1 (single isomer, unassigned) 100 to 1000 nM

# query: IC50 of entry "C[C@@H](NC(=O)[C@@H]1CC2(CN1C(=O)CNC(=O)c1ccc(C(F)(F)F)cc1)OCCO2)c1cc(C(=N)N)cs1" < 100 nM

Please give the measured IC50 for this compound: N=C(N)c1csc(CNC(=O)[C@@H]2CC(c3nccs3)CN2C(=O)CNC(=O)c2ccc(Oc3ccccc3)cc2)c1 (stereo in doubt) < 100 nM

---

- test target: Human complement C1s enzyme (Homo sapiens)
- Construct: purified from human serum, Complement Technology, Inc; purchased Complement Technology, Inc; host or cells: human serum
- assay: Human C1s Enzyme Assay
- Format: biochemical
- experimental setup: human C1s 1.16 nM, 5 min preincubation, substrate Z-L-Lys-SBzl 100 μM, A405; read-out: C1s Protease Activity
pIC50: −log10 of the molar value.
Each entry below carries its recorded pIC50.

Answered examples (5):
- compound: "C[C@@H](NC(=O)[C@@H]1C[C@@]23COCCC/C=C/CCCCCCCCC(=O)N[C@@H](CCOc4ccccc4)C(=O)NCC(=O)N1[C@H]2C3)c1cc(C(=N)N)cs1 [Compound 250]"
  pIC50: "> 7.00"
- compound: "N=C(N)c1csc([C@@H](Cc2ccccc2)NC(=O)[C@@H]2CC3(CN2C(=O)CNC(=O)CCCOc2ccccc2)OCCO3)c1 [Compound 176]"
  pIC50: "< 6.00"
- compound: "C[C@@]12C[C@@H]1N(C(=O)CNC(=O)c1ccccc1Oc1ccccc1)[C@H](C(=O)NCc1cc(C(=N)N)cs1)C2 [Compound 145]"
  pIC50: "> 7.00"
- compound: "C[C@@]12C[C@@H]1N(C(=O)CNC(=O)c1ccc(Oc3ccccc3)cc1)[C@H](C(=O)NCCc1cc(C(=N)N)cs1)C2 [Compound 52]"
  pIC50: "> 7.00"
- compound: "N=C(N)c1csc(CNC(=O)[C@@H]2C[C@@]3(CCO3)CN2C(=O)CNC(=O)c2ccc(Oc3ccccc3)cc2)c1 [Compound 194]"
  pIC50: "> 7.00"

Next, consider the following compound.
Endpoint output: pIC50 of COC(=O)C(NC(=O)[C@@H]1C[C@@H](OC(F)F)CN1C(=O)CNC(=O)c1ccc(Oc2ccccc2)cc1)c1cc(C(=N)N)cs1 (stereo partly shown) [Compound 189] . Value? < 6.00

---

# IC50 annotations
- test target: Human complement C1s enzyme (Homo sapiens, UniProt P09871)
- Construct: purified from human serum, Complement Technology, Inc; purchased Complement Technology, Inc; host or cells: human serum
- assay: Human C1s Enzyme Assay
- Type: biochemical
- experimental setup: human C1s 1.16 nM, 5 min preincubation, substrate Z-L-Lys-SBzl 100 μM, A405; read-out: C1s Protease Activity

Completed entries (count: 5):
- compound: "C[C@@]12C[C@@H]1N(C(=O)CNC(=O)c1cc3cc(Oc4ccccc4)ccc3o1)[C@H](C(=O)NCc1cc(C(=N)N)cs1)C2"
  IC50: "< 100 nM"
- compound: "C[C@@]12C[C@@H]1N(C(=O)CNC(=O)c1ccc(Oc3ccccc3)cc1)[C@H](C(=O)NCc1cc(C(=N)N)c(F)s1)C2"
  IC50: "< 100 nM"
- compound: "CC(CCC(=O)NCC(=O)N1CC2(C[C@H]1C(=O)NCc1cc(C(=N)N)cs1)OCCO2)Oc1ccccc1 (stereo partly drawn)"
  IC50: "< 100 nM"
- compound: "N=C(N)c1csc(CNC(=O)[C@@H]2C[C@@H](C(F)F)CN2C(=O)CNC(=O)CCCOc2ccccc2)c1"
  IC50: "100 to 1000 nM"
- compound: "CO/C(=N/C#N)c1csc(CNC(=O)[C@@H]2C[C@]3(C)C[C@@H]3N2C(=O)CNC(=O)c2ccc(Oc3ccccc3)cc2)c1"
  IC50: "> 1000 nM"

Let us examine a further case.
IC50 for "N=C(N)c1csc(CNC(=O)[C@@H]2C[C@@H](C3CCCC3)CN2C(=O)CNC(=O)c2ccc(Oc3ccccc3)cc2)c1" ? < 100 nM
